Hey, just so you know, these numbers are from patent US20260167959A1.

# Tested on: Renilla luciferase RNA
# PROTOCOL_SUMMARY: Barcoded aptazyme variant library screen: un-cleaved Renilla luciferase RNA by barcode read counts, HEK293-T cells
# Type: cell-based
# EXPERIMENTAL_CONDITIONS: un-cleaved Renilla luciferase RNA by barcode read counts; with 1 mM theophylline (ON) over without theophylline (OFF); HEK293-T cells; triplicate
# From the text: Based on the findings from Example 1, an aptazyme variant library was generated from the T3H48 ribozyme with one of seven variant theophylline aptamers inserted sequentially after each nucleotide of the DNA sequence encoding the T3H48 ribozyme sequence. […] The seven variant theophylline aptamers vary in their communication channels, which are the ribonucleotides of the aptamer that attach to the ribozyme sequence (see, Table 2). […]
Known Fold change in RNA expression between the ON state and the OFF state of a selection of molecules
ASSAY_METRIC: Fold change in RNA expression between the ON state and the OFF state

>>> measured("RA412 (nucleic acid, expressed or natural sequence) DNA: GCGCGTCCTGGATTCGCGGAGTGATACCAGCATCGTCTTGATGCCCTTGGCAGCACTAAACGCGTACATCCAGCTGACGAGTCCCAAATAGGACGAAACGCGC")
0.7
>>> measured("RA351 (nucleic acid, expressed or natural sequence) DNA: GCGCGTCCTGGATTCGCGGAAACGCGTACATCCAGCGAGAATACCAGCATCGTCTTGATGCCCTTGGAAGTCTCTGACGAGTCCCAAATAGGACGAAACGCGC")
0.9
>>> measured("RA362 (nucleic acid, expressed or natural sequence) DNA: GCGCGTCCTGGAGGAATACCAGCATCGTCTTGATGCCCTTGGAAGTCCTTCGCGGAAACGCGTACATCCAGCTGACGAGTCCCAAATAGGACGAAACGCGC")
0.8
>>> measured("RA413 (nucleic acid, expressed or natural sequence) DNA: GCGCGTCCTGGATTCGCGGAAACGCGTAGAATACCAGCATCGTCTTGATGCCCTTGGAAGTCTACATCCAGCTGACGAGTCCCAAATAGGACGAAACGCGC")
0.7
>>> measured("RA367 (nucleic acid, expressed or natural sequence) DNA: GCGCGTCCTGGATGGAATACCAGCATCGTCTTGATGCCCTTGGAAGTCCTCGCGGAAACGCGTACATCCAGCTGACGAGTCCCAAATAGGACGAAACGCGC")
0.8
>>> measured("RA467 (nucleic acid, expressed or natural sequence) DNA: GCGCGTCCTGGATTCGCGGAAACGAGAATACCAGCATCGTCTTGATGCCCTTGGAAGTCTCGTACATCCAGCTGACGAGTCCCAAATAGGACGAAACGCGC")
0.4
>>> measured("RA396 (nucleic acid, expressed or natural sequence) DNA: GCGCGTCCTGGATTCGCGGAAACGCGTACATCCAGCTGCGGAATACCAGCATCGTCTTGATGCCCTTGGAAGTCCGACGAGTCCCAAATAGGACGAAACGCGC")
0.7
>>> measured("RA371 (nucleic acid, expressed or natural sequence) DNA: GCGCGTCCTGGATTCGCGGAAACGCGTACATCCAGCTGACGAGTCCCAAAAGAATACCAGCATCGTCTTGATGCCCTTGGAAGTCTTAGGACGAAACGCGC")
0.8
>>> measured("RA389 (nucleic acid, expressed or natural sequence) DNA: GCGCGTCCTGGATTCGCGGAAACGCGTACCGGAATACCAGCATCGTCTTGATGCCCTTGGAAGTCCGATCCAGCTGACGAGTCCCAAATAGGACGAAACGCGC")
0.8
>>> measured("RA310 (nucleic acid, expressed or natural sequence) DNA: GCGCGTCCTGGATTCGCGGAAACGCGTACATCCAGCTGACGAGTCCCAAATAGAATACCAGCATCGTCTTGATGCCCTTGGAAGTCTAGGACGAAACGCGC")
1.0
>>> measured("RA448 (nucleic acid, expressed or natural sequence) DNA: GCGCGCGGAATACCAGCATCGTCTTGATGCCCTTGGAAGTCCGTCCTGGATTCGCGGAAACGCGTACATCCAGCTGACGAGTCCCAAATAGGACGAAACGCGC")
0.5
>>> measured("RA398 (nucleic acid, expressed or natural sequence) DNA: GCGCGTCCTGGATTCGCGGACGAGAATACCAGCATCGTCTTGATGCCCTTGGAAGTCTCGAACGCGTACATCCAGCTGACGAGTCCCAAATAGGACGAAACGCGC")
0.7
>>> measured("RA317 (nucleic acid, expressed or natural sequence) DNA: GCGCGTCCTGGATTCGCGGAAACGCGTACATCCAGCTGACGAGTCCCAAATAGCCGGAATACCAGCATCGTCTTGATGCCCTTGGAAGTCCGGGACGAAACGCGC")
0.9
>>> measured("RA306 (nucleic acid, expressed or natural sequence) DNA: GCGCGGGAATACCAGCATCGTCTTGATGCCCTTGGAAGTCCTCCTGGATTCGCGGAAACGCGTACATCCAGCTGACGAGTCCCAAATAGGACAAAACGCGC")
1.0
